Overview of recorded inhibition at 400 µM for various molecules
# EXPERIMENTAL_SYSTEM: GST-tagged recombinant human full-length TTK protein kinase (Homo sapiens, UniProt P33981)
# Construct: GST-tagged recombinant human full-length TTK protein kinase; purchased Invitrogen (Life Technologies Ltd., Paisley, U.K.)
# PROCEDURE_TEXT: TTK mobility shift microfluidics assay, single-concentration percent inhibition screen
# Assay type: biochemical
# SETTINGS: compound at 400 μM (fragment-like, MW < 300 Da); 12.5 nM TTK, 10 μM ATP; mean of duplicate ± SD
Report as a plain number; the unit % is understood.

Sample answers from the record:
COc1ccc(Nc2ncnc3c2cnn3C)cc1OC : 82.5
COc1ccc2c(c1)[nH]c1c(C)nccc12 : 65
c1cc2cnc3ccsc3c2cn1 [Compound 5, thieno[3,2-c][2,6]naphthyridine] : 65
c1ccc2c(c1)[nH]c1cncnc12 [Compound 4, 5H-pyrimido[5,4-b]indole] : 63
COc1ccc(Nc2ncnc3nc[nH]c23)cc1OC : 67
COc1ccc(NC(=O)c2nc[nH]n2)cc1OC : 51

The record that follows has no inhibition at 400 µM shown yet.
Short answer please: inhibition at 400 µM, GST-tagged recombinant human full-length TTK protein kinase (Homo sapiens, UniProt P33981), entry `COc1ccc(Nc2nc(N)nc3nc[nH]c23)cc1OC`
86

###

Overview of recorded inhibition at 40 µM for various molecules
# EXPERIMENTAL_SYSTEM: GST-tagged recombinant human full-length TTK protein kinase (Homo sapiens, UniProt P33981)
# Construct: GST-tagged recombinant human full-length TTK protein kinase; purchased Invitrogen (Life Technologies Ltd., Paisley, U.K.)
# Sequence (P33981 1-857): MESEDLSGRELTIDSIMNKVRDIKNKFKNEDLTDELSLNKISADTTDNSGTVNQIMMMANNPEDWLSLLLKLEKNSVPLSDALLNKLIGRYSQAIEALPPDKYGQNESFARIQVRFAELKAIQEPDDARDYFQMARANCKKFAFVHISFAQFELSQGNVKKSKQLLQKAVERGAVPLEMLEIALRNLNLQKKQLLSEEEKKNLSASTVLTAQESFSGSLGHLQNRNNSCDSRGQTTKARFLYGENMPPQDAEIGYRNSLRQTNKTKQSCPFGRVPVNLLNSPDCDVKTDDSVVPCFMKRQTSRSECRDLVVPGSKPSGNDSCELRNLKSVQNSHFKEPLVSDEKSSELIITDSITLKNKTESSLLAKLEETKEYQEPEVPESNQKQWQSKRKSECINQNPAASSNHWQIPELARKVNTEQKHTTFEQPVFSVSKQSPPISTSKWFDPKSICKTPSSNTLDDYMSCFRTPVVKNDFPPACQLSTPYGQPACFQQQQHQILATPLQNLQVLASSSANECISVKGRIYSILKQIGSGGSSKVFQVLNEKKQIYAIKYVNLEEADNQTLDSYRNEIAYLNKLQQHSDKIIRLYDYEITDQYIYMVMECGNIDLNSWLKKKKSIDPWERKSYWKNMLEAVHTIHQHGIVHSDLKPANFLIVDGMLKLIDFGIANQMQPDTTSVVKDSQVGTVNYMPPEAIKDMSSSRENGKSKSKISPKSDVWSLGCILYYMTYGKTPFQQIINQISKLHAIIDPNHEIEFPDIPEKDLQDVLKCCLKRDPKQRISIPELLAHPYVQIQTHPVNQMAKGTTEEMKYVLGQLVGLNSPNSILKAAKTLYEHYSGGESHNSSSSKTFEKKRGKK
# PROCEDURE_TEXT: TTK mobility shift microfluidics assay, single-concentration percent inhibition screen
# Type: biochemical
# SETTINGS: compound at 40 μM; 12.5 nM TTK, 10 μM ATP, 1% DMSO; mean of duplicate ± SD
Report as a plain number; the unit % is understood.

Sample answers from the record:
N#Cc1ccccc1NC(=O)Cn1ncc2c1-c1ccccc1OC2 : 53.5
COc1ccc(Nc2cc(C)nc3ncnn23)cc1OC : 52
COc1ccc(Nc2cc(-c3ccccc3)ncn2)cc1OC : 68.5
COc1ccc(Nc2ccc3nnnn3n2)cc1OC : 71.5
COc1ccc(Nc2ccc3nnc(C(F)(F)F)n3n2)cc1OC : 59

What measured inhibition at 40 µM goes with `Cc1ccc2[nH]c3c(N4CCCCC4)ncnc3c2c1` ?
68

Queued: c1cc2cnc3ccsc3c2cn1 [Compound 5, thieno[3,2-c][2,6]naphthyridine]
46

Queued: c1cc2c(cn1)cnc1sccc12 [Compound 7, thieno[2,3-c][2,7]naphthyridine]
51

Queued: c1cc2cnc3sccc3c2cn1 [Compound 3, Thieno[2,3-c][2,6]naphthyridine]
70
